# experimental system: Fructose-bisphosphate aldolase class 2 (Escherichia coli K-12, UniProt P0AB71)
# Sequence (P0AB71 whole entry): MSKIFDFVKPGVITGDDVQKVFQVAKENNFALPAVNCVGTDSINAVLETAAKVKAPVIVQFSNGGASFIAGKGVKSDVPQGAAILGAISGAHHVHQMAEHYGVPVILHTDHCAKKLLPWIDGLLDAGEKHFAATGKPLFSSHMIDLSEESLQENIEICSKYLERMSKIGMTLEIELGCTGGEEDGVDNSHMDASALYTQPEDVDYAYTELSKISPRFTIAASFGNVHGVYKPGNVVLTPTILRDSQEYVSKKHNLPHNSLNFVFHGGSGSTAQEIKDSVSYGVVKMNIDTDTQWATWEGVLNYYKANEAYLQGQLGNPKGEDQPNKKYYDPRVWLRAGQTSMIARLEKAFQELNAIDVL
# measurement notes: Inhibitory activity against class II FBP aldolase from Escherichia coli
quantity measured: pKi
As a rule, pKi stands for the negative log10 of the concentration, concentration in M.

Completed entries (count: 2):
| compound | measured value |
| --- | --- |
| CS(=O)(=O)NC(=O)COP(=O)(O)O | 3.46 |
| O=C(COP(=O)(O)O)NO [PHOSPHOGLYCOLOHYDROXAMATE] | 8.00 |

Shifting focus to the compound that follows.
Fill in: pKi of O=C(COP(=O)(O)O)NS(=O)(=O)c1ccccc1 is ___
4.00
